# assay explanation: In vitro photodynamic treatment, control HSK1 cells
# Format: cell-based, human
# run conditions: human, hsk1 skin fibroblasts; HSK1, 5 × 10^-8 M, dark; read-out: % Surviving Fraction, Dark
# From the text: Several selenopyrylium dyes and telluropyrylium dyes from Table I that generated singlet oxygen upon irradiation in air-saturated methanol were examined in vitro in mammalian cell cultures for their effectiveness as agents for photodynamic therapy. […] As controls, HSK1 (normal human skin fibroblasts) and CV-1 (normal monkey kidney cells) were used. […]
recorded metric: viability at 0.05 µM (%)
Answer in %, number only, no unit symbol.

get_value(item= CC(C)(C)C1=CC(=CC=Cc2cc(C(C)(C)C)[se+]c(C(C)(C)C)c2)C=C(C(C)(C)C)[Te]1.[Cl-] , readout=viability at 0.05 µM) returns 99

----------
# assay explanation: In vitro photodynamic therapy, FADU cells
# Type: cell-based, human
# run conditions: human, fadu squamous cell carcinoma; FADU, 5 × 10^-8 M, dark; read-out: % Surviving Fraction, Dark
recorded metric: viability at 0.05 µM (%)
Your answer is read as %, so omit the unit and give the number.

Per the records, this molecule ( CC(C)(C)C1=CC(=CC=Cc2cc(C(C)(C)C)[se+]c(C(C)(C)C)c2)C=C(C(C)(C)C)[Te]1.[Cl-] ) has viability at 0.05 µM equal to 99

----------
# assay explanation: Absorption maxima (λmax) of chalcogenopyrylium dyes
# Type: physicochemical
# run conditions: MeOH
recorded metric: Absorption maximum λmax (nm)
Give just the number in nm; leave the unit off.

Solved entries:
{"chem smiles": "C(=C1C=C(c2ccccc2)[Te]C(c2ccccc2)=C1)c1cc(-c2ccccc2)[te+]c(-c2ccccc2)c1", "observed measurement": 760}
{"chem smiles": "C(=CC=C1C=C(c2ccccc2)[Te]C(c2ccccc2)=C1)C=Cc1cc(-c2ccccc2)[te+]c(-c2ccccc2)c1", "observed measurement": 1060}
{"chem smiles": "CC(C)(C)C1=CC(=Cc2cc(CCCCO)[te+]c(CCCCO)c2)C=C(C(C)(C)C)[Se]1", "observed measurement": 690}
{"chem smiles": "CC(=CC(C)=C1C=C(C(C)(C)C)[Se]C(C(C)(C)C)=C1)c1cc(C(C)(C)C)[se+]c(C(C)(C)C)c1", "observed measurement": 790}

# next compound below
Quick note, Absorption maximum λmax for CC(C)(C)C1=CC(=C(C#N)C=Cc2cc(C(C)(C)C)[te+]c(C(C)(C)C)c2)C=C(C(C)(C)C)[Te]1 landed at 790

----------
Parameter viability at 1 µM: see the listing below.
# assay explanation: In vitro photodynamic treatment, control CV-1 cells
# Assay type: cell-based, monkey
# run conditions: monkey, cv-1 kidney cells; CV1, 1 × 10^-6 M, dark; read-out: % Surviving Fraction, Dark
Include the unit after the number when you answer.

{"compound": "CC(C)(C)C1=CC(=CC=Cc2cc(C(C)(C)C)[te+]c(C(C)(C)C)c2)C=C(C(C)(C)C)[Te]1", "observed measurement": "99%"}

Measured viability at 1 µM of CC(C)(C)C1=CC(=CC=Cc2cc(C(C)(C)C)[o+]c(C(C)(C)C)c2)C=C(C(C)(C)C)O1.[Cl-] [C.E. 3, reference compound] : 100%

Reported viability at 1 µM for CC(C)(C)C1=CC(=CC=Cc2cc(C(C)(C)C)[o+]c(C(C)(C)C)c2)C=C(C(C)(C)C)[Se]1 was 100%
